Target: T1, human CD7 on cells (human, UniProt P09564 26-240)
T1 construct: whole, on cells; Target of the FACS and cell capture values and of the kill assays on CD7 single positive cells; also called CD7+ cells; Jurkat (CD33-/CD7+)
T1 sequence (looked up): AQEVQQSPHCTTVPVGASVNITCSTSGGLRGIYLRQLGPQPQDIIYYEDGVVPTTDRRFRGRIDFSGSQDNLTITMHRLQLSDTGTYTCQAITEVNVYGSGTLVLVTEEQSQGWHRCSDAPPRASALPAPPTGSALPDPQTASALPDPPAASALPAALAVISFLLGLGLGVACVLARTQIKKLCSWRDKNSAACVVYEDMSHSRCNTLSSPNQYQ
Test: FACS; cells not named
Property: FACS binding
Form: value (number only, do not type unit).

CD7-PP-1-WT CD7 binding arm (Fab, V domains shown, also called PP WT) VH: QVQLQESGAELVKPGASVKLSCKASGYTFTSYWMHWVKQRPGQGLEWIGKINPSNGRTNYNEKFKSKATLTVDKSSSTAYMQLSSLTSEDSAVYYCARGGVYYDLYYYALDYWGQGTTVTVSS VL: DIELTQSPATLSVTPGDSVSLSCRASQSISNNLHWYQQKSHESPRLLIKSASQSISGIPSRFSGSGSGTDFTLSINSVETEDFGMYFCQQSNSWPYTFGGGTKLEIKR : 0.53
7-PP-10 (Fab, V domains shown) VH: QVQLQESGAELVKPGASVKLSCKASGYTFTSYWMHWVKQRPGQGLEWIGKINPSNGRTNYNEKFKSKATLTVDKSSSTAYMQLSSLTSEDSAVYYCARGGVYYDGYYAALDYWGQGTTVTVSS VL: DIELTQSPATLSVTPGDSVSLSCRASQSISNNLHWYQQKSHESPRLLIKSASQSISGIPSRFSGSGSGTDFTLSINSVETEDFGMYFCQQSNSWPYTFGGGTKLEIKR : 335
CD7-PP-7 CD7 binding arm (Fab, V domains shown, Heavy chain Arg57Gly/Tyr108Ala) VH: QVQLQESGAELVKPGASVKLSCKASGYTFTSYWMHWVKQRPGQGLEWIGKINPSNGGTNYNEKFKSKATLTVDKSSSTAYMQLSSLTSEDSAVYYCARGGVYYDLYYAALDYWGQGTTVTVSS VL: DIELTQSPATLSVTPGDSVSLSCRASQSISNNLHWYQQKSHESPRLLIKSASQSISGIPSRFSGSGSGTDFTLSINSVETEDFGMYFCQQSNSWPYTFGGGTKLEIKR : 267

Alright, here's another binder for you.
Q) Give recorded FACS binding. CD7-PP-6 binding arm (Fab, V domains shown, Heavy chain Asp104Ala) VH: QVQLQESGAELVKPGASVKLSCKASGYTFTSYWMHWVKQRPGQGLEWIGKINPSNGRTNYNEKFKSKATLTVDKSSSTAYMQLSSLTSEDSAVYYCARGGVYYALYYYALDYWGQGTTVTVSS VL: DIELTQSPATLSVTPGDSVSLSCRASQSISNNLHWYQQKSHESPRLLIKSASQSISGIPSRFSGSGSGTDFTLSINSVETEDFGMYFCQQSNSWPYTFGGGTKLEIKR
A) 9.76
